These data points were gathered from PubChem BioAssay (NCI).

# System: SK-MEL-28 melanoma
# Procedure Text: NCI tumour cell line growth inhibition, 48 h
Observation Type: TGI

Consider the worked cases shown below.
>  <Compound>
CN(C)c1ncnc2c1ccn2C1OC(CO)C(O)C1O (stereo not drawn)

>  <Target Desc>
SK-MEL-28 melanoma

>  <TGI>
> 100 µM

$$$$
>  <Compound>
Cc1ccc(F)c2c(=O)cc(-c3ccccc3)[nH]c12

>  <Target Desc>
SK-MEL-28 melanoma

>  <TGI>
> 100 µM

$$$$
>  <Compound>
COc1ccc2c(c1OC)C(=O)O[C@@H]2[C@H]1c2c(c(Br)c3c(c2OC)OCO3)CCN1C

>  <Target Desc>
SK-MEL-28 melanoma

>  <TGI>
> 100 µM

$$$$
>  <Compound>
Cc1cn2c(/C=C3/C(=O)Nc4ccccc43)c(C)nc2s1

>  <Target Desc>
SK-MEL-28 melanoma

>  <TGI>
> 100 µM

$$$$
>  <Compound>
COC(=O)Nc1nc2ccc(S(=O)(=O)c3ccc(NC(=O)Nc4cc(C(F)(F)F)ccc4F)cc3)cc2[nH]1

>  <Target Desc>
SK-MEL-28 melanoma

>  <TGI>
> 25 µM

$$$$

Would you mind giving TGI for every compound in the list below?
1. Cc1[nH]c2ccccc2c1C1=CC(=O)N(c2ccccc2)C1=O
2. COc1ccccc1Cn1[nH]c(=O)c2cc([N+](=O)[O-])ccc21
3. CCC(=O)c1c(C(F)(F)F)n([O-])c2ccccc2[n+]1=O
4. Cc1cn(Cc2ccccc2CCl)c(=O)n(Cc2ccccc2CCl)c1=O
5. Cc1ccc(Nc2cn(COCc3ccccc3)c(=O)[nH]c2=O)cc1
6. COC(=O)C1C(/C=C/c2ccoc2)ON2CCC[C@@H]12 (stereo partly drawn)
7. COc1cc(-c2oc3c(OC)c(O)cc(O)c3c(=O)c2OC)ccc1O
8. O=CN1N=C(c2ccc(Nc3ccnc4cc(Cl)ccc34)cc2)CC1c1ccc(Cl)cc1 (stereo not drawn)

1: 20.5 µM; 2: > 100 µM; 3: 44.6 µM; 4: 5.49 µM; 5: > 100 µM; 6: > 100 µM; 7: > 100 µM; 8: > 100 µM

---

# Test system: K-562 leukemia
# Procedure Text: NCI tumour cell line growth inhibition, 48 h
Observation Type: TGI

>  <Molecule>
COc1ccc(OC)c(/C=N/N=C2\C(=O)Nc3c(Cl)cc(Cl)cc32)c1

>  <Assay Value>
> 100 µM

$$$$

Batch lookup, TGI per entry.
1. O=c1[nH]c2c(c3ccccc13)CCc1ccccc1-2
2. O=C1C=C(OCCCl)C(=O)c2c(O)ccc(O)c21

1. > 100 µM
2. 3.11 µM

Lab note: each molecule below needs its TGI filled in.
1. CN1CCCC(C(=O)OCC(=O)C2(O)CCC3C4CCC5=CC(=O)CCC5(C)C4C(O)CC32C)C1 (stereo not drawn)
2. CC#Cc1c(C#CC)c(OC)c2c(c1OC)C(=O)c1ccccc1C2=O
3. COc1nc(C)nc2c1ncn2Cc1ccccc1
4. COc1ccc2c(c1)C=C1CSCC3=Cc4cc(OC)ccc4OC13O2
5. O=c1cc(-c2ccc(O)cc2)oc2cc(O)cc(O)c12
6. O=c1[nH]cnc2c1ncn2CCCCO

["28.7 µM", "> 100 µM", "> 100 µM", "> 100 µM", "> 100 µM", "> 100 µM"]

Report TGI for every entry below.
1. CC(=O)NC1C(OCc2ccccc2)OC(CO)C(O)C1OCC(=O)N1CCCC1C(=O)NC(CCC(=O)NCCCCCNc1c2ccccc2nc2cccc([N+](=O)[O-])c12)C(N)=O (stereo not drawn)
2. O=C1NN=CN2C(=O)CCC12 (stereo not drawn)
3. O=C1NC(SCc2ccc(F)cc2)=N/C1=C/c1cccc(OCc2ccc(Cl)cc2)c1
4. COC(=O)C1(C)OC(C)=NC1(C(=O)OC)C(=O)OC (stereo not drawn)
5. O=C1NC(c2ccccc2)N=C2Oc3ccccc3C=C12 (stereo not drawn)
6. Nc1ccc(C2=Nc3ccccc3SC(c3ccccc3O)C2)cc1 (stereo not drawn)
7. CCOC(=O)c1cn(CC)c2cc3c(cc2c1=O)SCS3

1. 0.0475 µM
2. > 100 µM
3. > 100 µM
4. > 100 µM
5. > 100 µM
6. 51.6 µM
7. > 100 µM

Field: TGI. Fill in for each record below.
1. CN(C)c1ncnc2c1ccn2C1OC(CO)C(O)C1O (stereo not drawn)
2. CC(C)c1cccc(C(C)C)c1NC(=O)C(=O)C1SC(=S)NC1=O (stereo not drawn)
3. COc1cc2c(Cc3cc(OCc4ccccc4)ccc3N)nccc2c(OC)c1OC

["> 100 µM", "> 100 µM", "> 10 µM"]
